Target: orexin-1 (Homo sapiens (Human), UniProt O43613)
Sequence (O43613 whole entry): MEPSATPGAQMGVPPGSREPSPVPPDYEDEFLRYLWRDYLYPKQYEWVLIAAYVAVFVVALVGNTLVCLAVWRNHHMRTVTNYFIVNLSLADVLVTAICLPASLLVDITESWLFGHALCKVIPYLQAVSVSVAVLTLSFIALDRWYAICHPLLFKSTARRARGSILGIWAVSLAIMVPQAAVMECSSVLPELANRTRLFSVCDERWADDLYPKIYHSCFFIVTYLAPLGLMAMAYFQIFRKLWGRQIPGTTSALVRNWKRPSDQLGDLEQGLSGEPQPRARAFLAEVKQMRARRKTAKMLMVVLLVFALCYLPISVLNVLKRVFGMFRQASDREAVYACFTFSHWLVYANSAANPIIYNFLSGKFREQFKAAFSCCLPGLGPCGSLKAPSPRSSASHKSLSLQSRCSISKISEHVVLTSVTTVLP
Assay: Intracellular calcium measurement (FLIPR), CHO cells expressing human orexin-1 receptor, 3 nM orexin-A
Assay type: cell-based
Settings: CHO cells expressing human orexin-1 receptor, FLIPR, 3 nM orexin-A; geometric mean if determined several times; read-out: IC50 OX1
Endpoint label: pIC50
Reminder that pIC50 means the negative base-10 logarithm of the concentration expressed in mol/L.

Before answering, review these 3 worked examples.
• CCOc1ncccc1-c1nnc([C@@H]2CCCN2C(=O)c2cc(C)ccc2-n2nccn2)o1 = 6.74
• Cc1ccc(C(=O)N2CCC[C@H]2c2cc(-c3ccccc3OC(F)(F)F)n[nH]2)c(-n2nccn2)c1 = 6.59
• COc1ccc(-n2cccn2)c(C(=O)N2CCC[C@H]2c2nc(-c3cccc(Cl)c3C)no2)c1 = 6.49

From here, focus on the item given below.
The value of pIC50 measured for the compound COc1cc(C)cc(-c2nc([C@@H]3CCCN3C(=O)c3ccc(C)cc3-n3nccn3)no2)c1 turned out to be 6.96
